All figures here come from patent US4336389A.

- Test system: Barnyard Grass
- ASSAY INFO: Inhibition of barnyard grass, safening agent and butachlor applied to soil surface, flooded pots (Example 18, Table IV)
- Type: in vivo
- CONDITION DETAILS: safening agent 1.12 kg/h + butachlor 0.28 kg/h; ~21 days; mean of two replicates
# % Inhibition, Barnyard Grass listing for each entry below
Provide only the numeric value, understood in %.

O=C(O)c1sc(Cl)nc1-c1ccccc1: 99
CCOC(=O)c1sc(Oc2ccc(Cl)cc2Cl)nc1-c1ccccc1: 98
CCOC(=O)c1sc(OCC)nc1-c1ccccc1: 100

Here is the next item to consider.
INPUT: Data request, read-out % Inhibition, Barnyard Grass, for "CCOC(=O)c1sc(Cl)nc1-c1ccc(Cl)cc1"
OUTPUT: 100

---

- System: rice
- ASSAY INFO: Safening effect against butachlor injury to pre-soaked rice, soil surface application, flooded pots (Example 16, Table II)
- Type: in vivo
- Set-up: key: herbicide injury alone + safener injury alone (max 100) minus combined injury
- CONDITION DETAILS: safening agent 0.56 kg/h; butachlor 0.07 kg/h; ~21 days; mean of two replicates
REPORTED METRIC: Safening Effect
Field format: numeric only.

Field: example entries. Status: answers known.
O=C(Cl)c1sc(Cl)nc1-c1ccccc1 [Example 12]: 35
CCOC(=O)c1sc(Cl)nc1-c1cccc(C(F)(F)F)c1 [Example 2]: 68
CCOC(=O)c1sc(Cl)nc1-c1ccc(Cl)cc1 [Example 4]: 30

INPUT: Data request, read-out Safening Effect, for CCOC(=O)c1sc(Cl)nc1-c1ccc(F)cc1 [Example 3]
OUTPUT: 30

---

# % Inhibition, Rice listing for each entry below
- System: rice
- ASSAY INFO: Inhibition of rice, safening agent and butachlor applied to soil surface, flooded pots (Example 18, Table IV)
- Assay type: in vivo
- CONDITION DETAILS: safening agent 1.12 kg/h + butachlor 0.28 kg/h; ~21 days; mean of two replicates
Provide only the numeric value, understood in %.

CCOC(=O)c1sc(OCC)nc1-c1ccccc1: 88
CCOC(=O)c1sc(Cl)nc1-c1ccc(Cl)cc1: 30

INPUT: Data request, read-out % Inhibition, Rice, for "CCOC(=O)c1sc(Oc2ccc(Cl)cc2Cl)nc1-c1ccccc1"
OUTPUT: 88

INPUT: Data request, read-out % Inhibition, Rice, for "O=C(O)c1sc(Cl)nc1-c1ccccc1"
OUTPUT: 20
